System: 996289-038-R-J1-PDC spheroid viability
experiment summary: Anticancer human tumor 996289-038-R-J1-PDC patient-derived colon adenocarcinoma cell line growth inhibition [PI3K]
condition label: second compound 0.1 µM; first compound 10 µM; stronger effect = lower value; spheroids with HUVEC and MSC
Kindly apply the following: Fulfilled if viability, T/C is less than 50%, Not fulfilled in every other case.

Below, 3 compounds whose answers are already recorded.
CC1(C)CCC(Nc2ncc(C(F)(F)F)c(-c3c[nH]c4c(P(C)(C)=O)c(C#N)ccc34)n2)CN1 (stereo not drawn) + CC(Nc1ncnc2nc[nH]c12)c1cc2cccc(Cl)c2c(=O)n1-c1ccccc1 : Fulfilled
CC(Cn1ccc(-c2ccc(C#N)c(Cl)c2)n1)NC(=O)c1cc(C(C)O)[nH]n1 (stereo not drawn) + COc1c(OCCCN2CCOCC2)ccc2c3n(c(=NC(=O)c4cnc(N)nc4)nc12)CCN3 : Not fulfilled
CC(Cn1ccc(-c2ccc(C#N)c(Cl)c2)n1)NC(=O)c1cc(C(C)O)[nH]n1 (stereo not drawn) + CC(Nc1ncnc2nc[nH]c12)c1cc2cccc(Cl)c2c(=O)n1-c1ccccc1 : Not fulfilled

[in] Bench note: check whether C=CC(=O)N1CCN(c2nc(=O)n(-c3c(C)ccnc3C(C)C)c3nc(-c4c(O)cccc4F)c(F)cc23)C(C)C1 (stereo not drawn) + CC(Nc1ccc2c(c1)OCCn1cc(N3C(=O)OCC3C(F)F)nc1-2)C(N)=O shows viability, T/C below 50%
[out] Not fulfilled

###

System: 996289-038-R-J1-PDC spheroid viability
experiment summary: Anticancer human tumor 996289-038-R-J1-PDC cell line growth inhibition [PI3K];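 further: luminescence used as a proxy for viable cell amount; spheroids exposed to compounds for seven days before viability read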
condition label: second compound 0.0316 µM; first compound 0.1 µM; stronger effect = lower value; spheroids with HUVEC and MSC
The following ranges of viability, T/C define the classes used here: lowest: < 80%; middle: ≥ 80% and < 90%; highest: ≥ 90%

C#Cc1c(F)ccc2cc(O)cc(-c3ncc4c(N5CC6CCC(C5)N6)nc(OCC56CCCN5CC(F)C6)nc4c3F)c12 (stereo not given) + CC(Nc1ccc2c(c1)OCCn1cc(N3C(=O)OCC3C(F)F)nc1-2)C(N)=O : middle
CC1(C)CCC(Nc2ncc(C(F)(F)F)c(-c3c[nH]c4c(P(C)(C)=O)c(C#N)ccc34)n2)CN1 (stereo not given) + Cc1nc(NC(=O)N2CCCC2C(N)=O)sc1-c1ccnc(C(C)(C)C(F)(F)F)c1 : middle
Cn1ncnc1[C@H]1c2n[nH]c(=O)c3cc(F)cc(c23)N[C@@H]1c1ccc(F)cc1 + CC(Nc1ncnc2nc[nH]c12)c1cc2cccc(Cl)c2c(=O)n1-c1ccccc1 : highest
CC1(C)CCC(Nc2ncc(C(F)(F)F)c(-c3c[nH]c4c(P(C)(C)=O)c(C#N)ccc34)n2)CN1 (stereo not given) + CC(Nc1ccc2c(c1)OCCn1cc(N3C(=O)OCC3C(F)F)nc1-2)C(N)=O : middle

[in] Any idea which band CC1(C)CCC(CN2CCN(c3ccc(C(=O)NS(=O)(=O)c4ccc(NCC5CCOCC5)c([N+](=O)[O-])c4)c(Oc4cnc5[nH]ccc5c4)c3)CC2)=C(c2ccc(Cl)cc2)C1 + COc1c(OCCCN2CCOCC2)ccc2c3n(c(=NC(=O)c4cnc(N)nc4)nc12)CCN3 is in?
[out] middle

[in] The entry to classify is Cn1nccc1Nc1nccc(-c2ccn(C(CO)c3ccc(Cl)c(F)c3)c(=O)c2)n1 (stereo not given) + CC(Nc1ncnc2nc[nH]c12)c1cc2cccc(Cl)c2c(=O)n1-c1ccccc1 ; which class holds it?
[out] highest

[in] Pick a category. Item: Cn1ncc(Cl)c1-c1cc(C(=O)NC(CN)Cc2cccc(F)c2)sc1Cl (stereo not given) + COc1c(OCCCN2CCOCC2)ccc2c3n(c(=NC(=O)c4cnc(N)nc4)nc12)CCN3
[out] lowest

[in] // return the class label for CC1(C)CCC(CN2CCN(c3ccc(C(=O)NS(=O)(=O)c4ccc(NCC5CCOCC5)c([N+](=O)[O-])c4)c(Oc4cnc5[nH]ccc5c4)c3)CC2)=C(c2ccc(Cl)cc2)C1 + CC(Nc1ncnc2nc[nH]c12)c1cc2cccc(Cl)c2c(=O)n1-c1ccccc1
[out] middle

[in] State the band of CCN1CCN(Cc2ccc(Nc3ncc(F)c(-c4cc(F)c5nc(C)n(C(C)C)c5c4)n3)nc2)CC1 + CC(Nc1ccc2c(c1)OCCn1cc(N3C(=O)OCC3C(F)F)nc1-2)C(N)=O
[out] lowest

[in] Which category does the recorded viability, T/C put Cn1ncnc1[C@H]1c2n[nH]c(=O)c3cc(F)cc(c23)N[C@@H]1c1ccc(F)cc1 + COc1c(OCCCN2CCOCC2)ccc2c3n(c(=NC(=O)c4cnc(N)nc4)nc12)CCN3 in?
[out] lowest

[in] State the class of the compound shown: CC(Cn1ccc(-c2ccc(C#N)c(Cl)c2)n1)NC(=O)c1cc(C(C)O)[nH]n1 (stereo not given) + CC(Nc1ccc2c(c1)OCCn1cc(N3C(=O)OCC3C(F)F)nc1-2)C(N)=O
[out] highest
